target: Factor X, P00742
Sequence (P00742 whole entry, looked up): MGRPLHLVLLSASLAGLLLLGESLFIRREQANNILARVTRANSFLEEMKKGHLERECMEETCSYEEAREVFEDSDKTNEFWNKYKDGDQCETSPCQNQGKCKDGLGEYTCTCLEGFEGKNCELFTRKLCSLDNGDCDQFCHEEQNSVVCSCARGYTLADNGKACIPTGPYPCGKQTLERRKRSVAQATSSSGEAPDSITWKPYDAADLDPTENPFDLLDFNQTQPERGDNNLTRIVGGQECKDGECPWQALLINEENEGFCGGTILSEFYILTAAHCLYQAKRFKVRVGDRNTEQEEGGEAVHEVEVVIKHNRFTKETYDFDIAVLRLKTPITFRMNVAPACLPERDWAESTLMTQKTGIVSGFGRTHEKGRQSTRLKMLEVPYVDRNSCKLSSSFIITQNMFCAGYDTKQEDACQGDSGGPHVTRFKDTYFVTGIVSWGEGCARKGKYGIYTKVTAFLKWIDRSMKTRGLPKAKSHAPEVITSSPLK
result type: kcat/KM (M⁻¹ s⁻¹)

# protein, result type, result value
measured = [
    ("FIXa Y155F/K228N/K247N/N249S/R318Y/R338E/R403E/E410N (protein) chain 1: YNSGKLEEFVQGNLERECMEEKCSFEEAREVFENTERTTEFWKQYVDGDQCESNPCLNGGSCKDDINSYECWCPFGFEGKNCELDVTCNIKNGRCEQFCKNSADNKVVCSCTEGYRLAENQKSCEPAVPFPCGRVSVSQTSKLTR chain 2: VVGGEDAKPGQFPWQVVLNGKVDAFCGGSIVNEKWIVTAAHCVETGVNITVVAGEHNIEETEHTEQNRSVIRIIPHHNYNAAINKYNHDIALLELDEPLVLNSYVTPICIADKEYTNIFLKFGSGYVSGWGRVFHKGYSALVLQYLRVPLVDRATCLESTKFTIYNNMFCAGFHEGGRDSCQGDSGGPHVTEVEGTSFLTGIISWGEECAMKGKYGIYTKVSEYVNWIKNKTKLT", "kcat/KM", "1.2e+08"),
    ("FIXa-K228N/R318Y/E410N (mature FIX numbering) (protein) chain 1: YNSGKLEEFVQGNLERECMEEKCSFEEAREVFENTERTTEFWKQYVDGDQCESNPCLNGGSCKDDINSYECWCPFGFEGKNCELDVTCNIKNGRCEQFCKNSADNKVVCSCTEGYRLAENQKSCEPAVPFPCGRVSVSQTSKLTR chain 2: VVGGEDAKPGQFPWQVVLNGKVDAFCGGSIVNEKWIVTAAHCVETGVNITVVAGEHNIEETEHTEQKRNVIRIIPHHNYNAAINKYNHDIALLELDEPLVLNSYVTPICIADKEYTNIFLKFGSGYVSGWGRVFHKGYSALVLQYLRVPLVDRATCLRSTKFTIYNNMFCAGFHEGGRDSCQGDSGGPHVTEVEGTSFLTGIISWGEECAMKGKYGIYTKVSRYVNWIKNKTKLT", "kcat/KM", "1.2e+08"),
    ("FIXa D104N/K106S/Y155F/K247N/N249S/N260S (protein) chain 1: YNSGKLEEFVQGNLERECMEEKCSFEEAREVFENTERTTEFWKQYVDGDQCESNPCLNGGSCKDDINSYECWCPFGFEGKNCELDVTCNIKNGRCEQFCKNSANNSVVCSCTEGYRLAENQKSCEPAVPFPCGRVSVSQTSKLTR chain 2: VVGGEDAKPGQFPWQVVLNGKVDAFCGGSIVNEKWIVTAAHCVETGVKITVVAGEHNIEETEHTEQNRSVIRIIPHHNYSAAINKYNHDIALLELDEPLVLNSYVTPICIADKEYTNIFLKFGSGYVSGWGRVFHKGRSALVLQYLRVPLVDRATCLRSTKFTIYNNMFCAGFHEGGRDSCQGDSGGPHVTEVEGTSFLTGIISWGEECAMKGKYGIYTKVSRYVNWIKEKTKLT", "kcat/KM", "8.2e+06"),
    ("FIXa Y155F/N260S/R318Y/R338E/R403E/E410N (protein) chain 1: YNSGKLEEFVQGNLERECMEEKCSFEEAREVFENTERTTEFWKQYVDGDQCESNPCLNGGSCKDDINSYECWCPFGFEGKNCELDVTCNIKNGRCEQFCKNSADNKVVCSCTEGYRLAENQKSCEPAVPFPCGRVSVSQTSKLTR chain 2: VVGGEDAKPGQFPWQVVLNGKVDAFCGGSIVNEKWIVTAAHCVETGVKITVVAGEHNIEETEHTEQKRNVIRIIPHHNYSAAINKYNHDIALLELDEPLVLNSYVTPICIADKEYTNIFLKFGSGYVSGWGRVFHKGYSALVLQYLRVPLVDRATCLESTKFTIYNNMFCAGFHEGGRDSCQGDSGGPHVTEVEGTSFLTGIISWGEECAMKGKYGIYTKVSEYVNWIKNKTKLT", "kcat/KM", "7e+07"),
    ("FIXa-Y155F/N260S/R338E/T343R/R403E (protein) chain 1: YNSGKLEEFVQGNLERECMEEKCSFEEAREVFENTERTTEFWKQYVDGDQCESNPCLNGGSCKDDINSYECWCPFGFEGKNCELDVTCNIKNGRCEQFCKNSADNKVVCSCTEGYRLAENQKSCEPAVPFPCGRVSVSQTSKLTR chain 2: VVGGEDAKPGQFPWQVVLNGKVDAFCGGSIVNEKWIVTAAHCVETGVKITVVAGEHNIEETEHTEQKRNVIRIIPHHNYSAAINKYNHDIALLELDEPLVLNSYVTPICIADKEYTNIFLKFGSGYVSGWGRVFHKGRSALVLQYLRVPLVDRATCLESTKFRIYNNMFCAGFHEGGRDSCQGDSGGPHVTEVEGTSFLTGIISWGEECAMKGKYGIYTKVSEYVNWIKEKTKLT", "kcat/KM", "9.4e+07"),
    ("FIXa-N260S/R318Y/R338E/T343R/R403E/E410N (protein) chain 1: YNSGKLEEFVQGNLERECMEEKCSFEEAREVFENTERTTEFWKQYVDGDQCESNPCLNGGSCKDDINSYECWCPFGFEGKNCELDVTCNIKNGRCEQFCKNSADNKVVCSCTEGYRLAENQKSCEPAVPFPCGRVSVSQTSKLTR chain 2: VVGGEDAKPGQFPWQVVLNGKVDAFCGGSIVNEKWIVTAAHCVETGVKITVVAGEHNIEETEHTEQKRNVIRIIPHHNYSAAINKYNHDIALLELDEPLVLNSYVTPICIADKEYTNIFLKFGSGYVSGWGRVFHKGYSALVLQYLRVPLVDRATCLESTKFRIYNNMFCAGFHEGGRDSCQGDSGGPHVTEVEGTSFLTGIISWGEECAMKGKYGIYTKVSEYVNWIKNKTKLT", "kcat/KM", "2.9e+08"),
    ("FIXa Y155F/K247N/N249S/N260S (protein) chain 1: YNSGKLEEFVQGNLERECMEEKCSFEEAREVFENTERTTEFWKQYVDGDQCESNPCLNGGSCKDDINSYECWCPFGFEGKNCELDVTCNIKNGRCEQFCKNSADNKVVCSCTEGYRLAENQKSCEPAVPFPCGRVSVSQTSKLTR chain 2: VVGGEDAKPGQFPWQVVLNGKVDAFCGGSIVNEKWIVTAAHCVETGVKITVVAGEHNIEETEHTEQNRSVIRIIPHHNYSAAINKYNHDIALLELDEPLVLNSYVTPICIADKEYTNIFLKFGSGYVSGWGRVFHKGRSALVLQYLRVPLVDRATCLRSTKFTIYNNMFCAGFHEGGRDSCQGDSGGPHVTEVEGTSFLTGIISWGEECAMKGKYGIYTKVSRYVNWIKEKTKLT", "kcat/KM", "1.9e+07"),
]
